pIC50: −log10 of the molar value.
Please find below pIC50 measurements for Receptor tyrosine-protein kinase erbB-4 (Homo sapiens, UniProt Q15303), combined from several publications.
OBSERVABLE: pIC50

>  <COMPOUND>
C[C@@H](Oc1c[nH]c(=O)c(C(=O)Nc2ccc(N3CCN(C)CC3)cc2)c1)c1c(Cl)ccc(F)c1Cl

>  <MEASUREMENT_TARGET>
Receptor tyrosine-protein kinase erbB-4 (Homo sapiens, UniProt Q15303)
Sequence (Q15303 whole entry): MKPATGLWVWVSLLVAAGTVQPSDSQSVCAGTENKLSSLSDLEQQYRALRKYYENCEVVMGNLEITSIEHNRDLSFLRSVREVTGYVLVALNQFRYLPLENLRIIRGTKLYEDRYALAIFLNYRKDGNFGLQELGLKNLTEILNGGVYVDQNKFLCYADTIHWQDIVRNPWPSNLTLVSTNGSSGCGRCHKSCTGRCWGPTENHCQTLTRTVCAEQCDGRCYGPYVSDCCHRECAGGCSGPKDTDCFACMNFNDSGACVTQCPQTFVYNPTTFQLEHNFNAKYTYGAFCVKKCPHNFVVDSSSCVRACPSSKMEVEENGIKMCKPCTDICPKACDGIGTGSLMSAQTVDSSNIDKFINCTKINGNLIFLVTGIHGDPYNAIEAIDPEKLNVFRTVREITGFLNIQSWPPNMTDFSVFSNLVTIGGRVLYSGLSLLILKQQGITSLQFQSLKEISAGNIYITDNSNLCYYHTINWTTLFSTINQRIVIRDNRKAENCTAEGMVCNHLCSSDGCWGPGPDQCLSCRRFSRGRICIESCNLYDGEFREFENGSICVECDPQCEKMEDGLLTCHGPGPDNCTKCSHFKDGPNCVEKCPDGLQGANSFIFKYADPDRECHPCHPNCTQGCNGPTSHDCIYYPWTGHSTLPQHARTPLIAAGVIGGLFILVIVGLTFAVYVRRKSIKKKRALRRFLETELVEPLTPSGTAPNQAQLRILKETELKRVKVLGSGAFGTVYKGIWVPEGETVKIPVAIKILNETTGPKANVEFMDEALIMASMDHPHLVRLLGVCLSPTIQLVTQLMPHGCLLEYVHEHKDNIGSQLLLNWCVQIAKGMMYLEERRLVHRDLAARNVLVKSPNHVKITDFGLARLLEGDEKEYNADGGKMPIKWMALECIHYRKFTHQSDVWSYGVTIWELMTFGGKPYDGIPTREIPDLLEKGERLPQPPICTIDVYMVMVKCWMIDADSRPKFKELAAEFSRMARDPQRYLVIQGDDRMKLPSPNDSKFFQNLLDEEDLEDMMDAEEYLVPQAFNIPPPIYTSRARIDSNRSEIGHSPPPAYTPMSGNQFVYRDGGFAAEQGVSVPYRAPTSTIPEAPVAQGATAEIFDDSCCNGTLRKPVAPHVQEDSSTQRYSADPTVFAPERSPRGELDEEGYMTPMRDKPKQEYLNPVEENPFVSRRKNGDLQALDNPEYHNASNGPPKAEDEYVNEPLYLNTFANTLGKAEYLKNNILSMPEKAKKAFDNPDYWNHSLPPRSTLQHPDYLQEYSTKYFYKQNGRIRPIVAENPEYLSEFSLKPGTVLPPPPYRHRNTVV

>  <OBSERVABLE>
pIC50

>  <VALUE>
< 6.00

$$$$
>  <COMPOUND>
C=CC(=O)N1CCC[C@H]1C(=O)Nc1cc2c(Nc3ccc(F)c(Cl)c3F)ncnc2cc1OCCOC

>  <MEASUREMENT_TARGET>
Receptor tyrosine-protein kinase erbB-4 (Homo sapiens, UniProt Q15303)

>  <OBSERVABLE>
pIC50

>  <VALUE>
> 7.00

$$$$
>  <COMPOUND>
O=C(Nc1cccc(Nc2cc(Nc3cccc(C(F)(F)F)c3)ncn2)c1)C1CC1

>  <MEASUREMENT_TARGET>
Receptor tyrosine-protein kinase erbB-4 (Homo sapiens, UniProt Q15303)

>  <OBSERVABLE>
pIC50

>  <VALUE>
5.12

$$$$
>  <COMPOUND>
CC(C)C(=O)N1CCO[C@@H](c2nc(-c3ccc(C(=O)Nc4cc(C(F)(F)F)ccn4)cc3F)c3c(N)nccn23)C1

>  <MEASUREMENT_TARGET>
Receptor tyrosine-protein kinase erbB-4 (Homo sapiens, UniProt Q15303)

>  <OBSERVABLE>
pIC50

>  <VALUE>
6.29

$$$$
>  <COMPOUND>
Cc1n[nH]c2ccc(-c3cc(N[C@@H](CO)c4ccccc4)cnc3Cl)cc12

>  <MEASUREMENT_TARGET>
Receptor tyrosine-protein kinase erbB-4 (Homo sapiens, UniProt Q15303)

>  <OBSERVABLE>
pIC50

>  <VALUE>
< 6.00

$$$$
>  <COMPOUND>
CC[C@@H]1C(=O)N(C)c2cnc(Nc3ccc(C(=O)NC4CCN(C)CC4)cc3OC)nc2N1C1CCCC1

>  <MEASUREMENT_TARGET>
Receptor tyrosine-protein kinase erbB-4 (Homo sapiens, UniProt Q15303)

>  <OBSERVABLE>
pIC50

>  <VALUE>
5.00

$$$$
>  <COMPOUND>
O=c1ccc(-n2ccc3ccc(F)cc32)nn1CCOc1ccnc2cc(OCCCN3CCOCC3)ccc12

>  <MEASUREMENT_TARGET>
Receptor tyrosine-protein kinase erbB-4 (Homo sapiens, UniProt Q15303)

>  <OBSERVABLE>
pIC50

>  <VALUE>
< 6.00

$$$$
>  <COMPOUND>
CC(c1cc2cc(-c3cnn(C)c3)cnc2cc1F)n1nnc2ncc(-c3cnn(CCO)c3)nc21 (stereo in doubt; 14)

>  <MEASUREMENT_TARGET>
Receptor tyrosine-protein kinase erbB-4 (Homo sapiens, UniProt Q15303)

>  <OBSERVABLE>
pIC50

>  <VALUE>
< 4.52

$$$$
>  <COMPOUND>
O=C(Nc1ccc(Oc2ncnc3[nH]ncc23)cc1)Nc1ccc(Cl)c(C(F)(F)F)c1

>  <MEASUREMENT_TARGET>
Receptor tyrosine-protein kinase erbB-4 (Homo sapiens, UniProt Q15303)

>  <OBSERVABLE>
pIC50

>  <VALUE>
< 5.00

$$$$

----------
A compilation of published log10 IC50 results with Receptor tyrosine-protein kinase erbB-4 (Homo sapiens).
OBSERVABLE: log10 IC50 (log10 of the value in nM)

>  <SAMPLE_SMILES>
CC(C)(/C=C(\C#N)C(=O)N1CCC[C@H](n2nc(-c3ccc(Oc4ccccc4)cc3F)c3c(N)ncnc32)C1)N1CCN(C2COC2)CC1

>  <MEASUREMENT_TARGET>
Receptor tyrosine-protein kinase erbB-4 (Homo sapiens)

>  <log10 IC50>
1.05

$$$$
>  <SAMPLE_SMILES>
C=CS(=O)(=O)N1CCC[C@@H]1Cn1cc(-c2ccc3c(c2)OCO3)c2c(N)ncnc21

>  <MEASUREMENT_TARGET>
Receptor tyrosine-protein kinase erbB-4 (Homo sapiens)

>  <log10 IC50>
3.00

$$$$
>  <SAMPLE_SMILES>
CC(C)N(CC#CC(=O)Nc1cc2c(Nc3ccc(F)c(Cl)c3)ncnc2cn1)C(C)C

>  <MEASUREMENT_TARGET>
Receptor tyrosine-protein kinase erbB-4 (Homo sapiens)

>  <log10 IC50>
2.73

$$$$
>  <SAMPLE_SMILES>
COc1cc(N2CCC(N3CCN(S(C)(=O)=O)CC3)CC2)ccc1Nc1nccc(-c2c(-c3cccc(C(=O)Nc4c(F)cccc4F)c3)nc3ccccn23)n1

>  <MEASUREMENT_TARGET>
Receptor tyrosine-protein kinase erbB-4 (Homo sapiens)

>  <log10 IC50>
1.87

$$$$
>  <SAMPLE_SMILES>
C#CC(=O)Nc1cc2c(Nc3cccc(Br)c3)ncnc2cn1

>  <MEASUREMENT_TARGET>
Receptor tyrosine-protein kinase erbB-4 (Homo sapiens)

>  <log10 IC50>
1.11

$$$$
>  <SAMPLE_SMILES>
CC1(C(=O)N2CCC[C@@H](c3nc(-c4ccc(C(=O)Nc5cc(C(F)(F)F)ccn5)cc4F)c4c(N)nccn34)C2)COC1

>  <MEASUREMENT_TARGET>
Receptor tyrosine-protein kinase erbB-4 (Homo sapiens)

>  <log10 IC50>
1.91

$$$$

----------
Field: pIC50. System: Receptor tyrosine-protein kinase erbB-4 (Homo sapiens). Provenance: assorted publications.
pIC50: −log10 of the molar value.

>  <SAMPLE_SMILES>
C=CC(=O)N1CCC[C@H]1C(=O)Nc1cc2c(Nc3cccc(Cl)c3F)ncnc2cc1OCCOC

>  <pIC50>
> 7.00

$$$$
>  <SAMPLE_SMILES>
Cc1ccc(C(=O)NC2CC2)cc1-c1ccc2c(=O)n(CC3CC3)nnc2c1

>  <pIC50>
< 4.60

$$$$
>  <SAMPLE_SMILES>
O=C(Nc1ccc(Oc2ncnc3scc(-c4ccccc4)c23)c(F)c1)c1cccn(-c2ccc(F)cc2)c1=O

>  <pIC50>
< 5.00

$$$$
>  <SAMPLE_SMILES>
C[C@@H](c1cc2cccnc2cc1F)n1cnc2ncc(-c3cnn(C)c3)nc21

>  <pIC50>
< 4.52

$$$$
